experiment: Staphylococcus aureus RN4220 growth blockers – two temperatures, LtaS inhibitor project, primary screen (AID 720641); details: S. aureus RN4220 growth, OD600, 20 h, 42 °C; stronger effect = lower value
Hit rate of the full screen: of about 170,000 compounds, about 900 (0.53%) were called active. The entries come from a sample that favours actives as a whole.
// boundary case: relative growth equal to 80% maps to f; strictly smaller maps to t

Here's what some known entries look like.
> print(dat)
                                    compound  qualitative.label
 1           COc1ccccc1NC(=O)Oc1ccc2ccncc2c1                  f
 2  COC(=O)c1ccc(NS(=O)(=O)c2cc(C(=O)OC)n(C)c2)cc1                  f
 3     Cc1ccc(-c2nc3ccccn3c2Nc2c(C)cccc2C)o1                  t
 4     NC(=O)C1CCN(C(=O)CSc2ccc3ccccc3c2)CC1                  f
 5  CC(C)(C)c1cc(Cl)c(O)c(NC(=O)c2cncc(Br)c2)c1                  f
 6     CCCCc1c(COC)nc(-c2ccc(Cl)cc2)[nH]c1=O                  f
 7  CCn1c(SCc2c(C)noc2C)nc2cc(S(=O)(=O)N3CCOCC3)ccc21                  t
 8  CC(Oc1ccccc1)C(=O)NC1CCCCC1 (configuration not stated)                  f
 9      CC(C)=CCOc1ccc2c3c(c(=O)oc2c1C)CCCC3                  f
10     CC(=O)Nc1ccc2nc3c(cc2c1)[nH]c1ccccc13                  f

// query Determine whether this compound shows relative growth lower than 80% (ties excluded): `CC(=O)Oc1cccc2c1C(=O)C=CC2=O`
// result t

// query API: query returns whether the compound falls strictly under 80% in relative growth. Query: `O=C(Nc1ccc(Cl)c(Cl)c1)Nc1ccnn1C1CCCCC1`
// result t

// query Does the reported relative growth of the following compound sit strictly below 80%? `CC(=O)N1CC=C(c2ccc(O)cc2)CC1`
// result t

// query Is it true that relative growth reported for CC1CCCCN1S(=O)(=O)CCNC(=O)c1ccccc1 (configuration not stated) is less than 80%?
// result f

// query Given the entry `COc1cc(/C=C/C(=O)OCC(N)=O)ccc1OCC#N` , would its reported relative growth be below 80%?
// result t

// query Please indicate whether the reported relative growth of `CC(C)(C)C(=O)CN1C(=O)c2ccccc2C1=O` is strictly below 80%.
// result f

// query # strict comparison: is reported relative growth < 80%? input = COC(=O)C(N)c1ccccc1 (configuration not stated)
// result t

---

assay: Staphylococcus aureus RN4220 growth blockers – two temperatures, LtaS inhibitor project, primary screen (AID 720641); details: S. aureus RN4220 growth, OD600, 20 h, 42 °C; measured here: growth at 30 °C; stronger effect = lower value
Screen size: about 170,000 compounds; about 900 (0.53%) were called active. Only a selection was taken, and actives are over-represented in it overall.
MEASURE: relative growth (%)
Numbers only, in %.

> print(dat)
                               compound          measure  units.text  endpoint.value
1                  CSc1nc(C)cc(=O)[nH]1  relative growth           %            90.7
2  CC(=O)Nc1nc(C)c(Cc2ccccc2)c(=O)[nH]1  relative growth           %            86.1

Lab note: each compound below needs its relative growth filled in.
1. CCCCCc1c(C)nc(-c2ccccn2)[nH]c1=O
2. Cc1ccc2nc(CN3CCc4sccc4C3c3cccs3)cn2c1 (configuration not stated)
3. Cc1ccccc1OCC(=O)Nc1cc(Sc2ccccn2)cc(S(=O)(=O)c2ccccc2)c1
4. N#Cc1ccc(OCC(=O)N=Nc2[nH]c(N)c3ccccc23)cc1
5. N#C/C(=C\c1ccccc1F)c1ccccc1

// result
1. 1.83
2. -0.28
3. 88.5
4. 101
5. 92.3
